Origin of the recorded values: ChEMBL document CHEMBL1165965

target: Mitogen-activated protein kinase kinase kinase kinase 1 (Homo sapiens) (UniProt Q92918); test: Inhibition of HPK1 at 1 uM
Sequence (Q92918 whole entry, looked up): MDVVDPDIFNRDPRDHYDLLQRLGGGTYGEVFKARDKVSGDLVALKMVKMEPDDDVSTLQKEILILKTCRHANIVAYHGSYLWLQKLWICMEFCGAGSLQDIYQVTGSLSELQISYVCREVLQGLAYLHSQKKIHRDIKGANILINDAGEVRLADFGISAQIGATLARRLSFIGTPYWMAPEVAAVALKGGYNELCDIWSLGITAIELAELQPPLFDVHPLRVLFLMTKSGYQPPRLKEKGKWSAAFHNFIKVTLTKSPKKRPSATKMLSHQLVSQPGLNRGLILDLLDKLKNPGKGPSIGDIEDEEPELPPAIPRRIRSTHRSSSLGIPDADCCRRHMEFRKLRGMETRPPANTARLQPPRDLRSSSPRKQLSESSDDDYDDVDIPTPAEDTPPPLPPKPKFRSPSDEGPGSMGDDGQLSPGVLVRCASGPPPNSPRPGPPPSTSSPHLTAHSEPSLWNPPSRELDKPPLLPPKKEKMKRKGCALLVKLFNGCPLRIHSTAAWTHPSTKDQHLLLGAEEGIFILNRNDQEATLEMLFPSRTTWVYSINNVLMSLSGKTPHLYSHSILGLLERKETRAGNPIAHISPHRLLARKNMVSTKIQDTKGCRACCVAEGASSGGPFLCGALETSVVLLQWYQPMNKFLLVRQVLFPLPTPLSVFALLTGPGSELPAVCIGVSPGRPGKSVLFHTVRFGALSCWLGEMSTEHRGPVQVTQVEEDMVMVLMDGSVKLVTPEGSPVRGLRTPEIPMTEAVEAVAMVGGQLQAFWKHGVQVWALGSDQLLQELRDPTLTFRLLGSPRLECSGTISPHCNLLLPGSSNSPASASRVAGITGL
Task for the reader: assign each of the following compounds its reported inhibition.

CC(=O)N1CCN(c2cc(-c3cnc4c(c3)N(Cc3cc(Cl)ccc3C(F)(F)F)CCN4)ccn2)CC1 : < 50%
O=C(c1ccc(-c2cnc3c(c2)N(Cc2cc(Cl)ccc2C(F)(F)F)CCN3)cc1)N1CCC(N2CCCC2)CC1 : 88.7%
CN1CCN(c2ccc(-c3cnc4c(c3)N(Cc3c(F)ccc(F)c3Cl)CCN4)cn2)CC1 : < 50%

# context switch: different compound, same inhibition
Look up inhibition of "FC(F)(F)c1ccc(Cl)cc1CN1CCNc2ncc(-c3ccnc(N4CCNCC4)c3)cc21" and report it.
< 50%

###

biological target: Serine/threonine-protein kinase PAK 1 (Homo sapiens) (UniProt Q13153); assay: Inhibition of PAK1 at 1 uM
Sequence (Q13153 whole entry): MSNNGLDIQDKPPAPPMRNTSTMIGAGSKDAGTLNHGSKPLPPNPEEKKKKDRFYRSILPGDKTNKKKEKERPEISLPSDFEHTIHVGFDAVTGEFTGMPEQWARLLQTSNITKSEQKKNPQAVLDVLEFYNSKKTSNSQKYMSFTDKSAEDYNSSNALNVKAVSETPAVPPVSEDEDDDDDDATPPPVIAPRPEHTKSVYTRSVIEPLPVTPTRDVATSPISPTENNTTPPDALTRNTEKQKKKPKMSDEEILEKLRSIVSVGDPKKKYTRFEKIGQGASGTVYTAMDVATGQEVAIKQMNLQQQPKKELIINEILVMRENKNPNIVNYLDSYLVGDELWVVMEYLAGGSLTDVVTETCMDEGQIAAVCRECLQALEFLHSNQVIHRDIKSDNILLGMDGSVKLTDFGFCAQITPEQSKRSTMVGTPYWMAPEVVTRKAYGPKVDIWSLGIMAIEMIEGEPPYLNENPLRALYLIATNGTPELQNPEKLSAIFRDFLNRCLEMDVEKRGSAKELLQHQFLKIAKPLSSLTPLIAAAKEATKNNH
measure: inhibition

Consider the following illustrative entries.
O=C(c1ccc(-c2cnc3c(c2)N(Cc2cc(Cl)ccc2C(F)(F)F)CCN3)cc1)N1CCCCC1 : < 50%
COC1CCN(C(=O)c2ccc(-c3cnc4c(c3)N(Cc3cc(Cl)ccc3C(F)(F)F)CCN4)cc2)CC1 : < 50%
O=C(c1ccc(-c2cnc3c(c2)N(Cc2cc(Cl)ccc2C(F)(F)F)CCN3)cc1)N1CCC(N2CCCC2)CC1 : < 50%
CN1CCN(c2ccc(-c3cnc4c(c3)N(Cc3cc(F)ccc3F)CCN4)cn2)CC1 : < 50%
CN1CCN(c2ccc(-c3cnc4c(c3)N(Cc3cc(Cl)ccc3Cl)CCN4)cn2)CC1 : < 50%

Could you report inhibition for every entry in the following list?
1. CN1CCN(c2ccc(-c3cnc4c(c3)N(Cc3cc(Cl)ccc3C(F)(F)F)CCN4)cn2)CC1
2. CC(=O)N1CCN(c2cc(-c3cnc4c(c3)N(Cc3cc(Cl)ccc3C(F)(F)F)CCN4)ccn2)CC1
3. FC(F)(F)c1ccc(Cl)cc1CN1CCNc2ncc(-c3ccnc(N4CCNCC4)c3)cc21
4. CN1CCN(c2ccc(-c3cnc4c(c3)N(Cc3c(F)ccc(F)c3Cl)CCN4)cn2)CC1

< 50%
< 50%
< 50%
< 50%

Look up inhibition of "O=C(O)c1ccc(-c2cnc3c(c2)N(Cc2cc(Cl)ccc2C(F)(F)F)CCN3)cc1" and report it.
< 50%

###

molecular target: Myosin-IIIa (Homo sapiens) (UniProt Q8NEV4); test: Inhibition of MYO3A at 1 uM
Sequence (Q8NEV4 whole entry): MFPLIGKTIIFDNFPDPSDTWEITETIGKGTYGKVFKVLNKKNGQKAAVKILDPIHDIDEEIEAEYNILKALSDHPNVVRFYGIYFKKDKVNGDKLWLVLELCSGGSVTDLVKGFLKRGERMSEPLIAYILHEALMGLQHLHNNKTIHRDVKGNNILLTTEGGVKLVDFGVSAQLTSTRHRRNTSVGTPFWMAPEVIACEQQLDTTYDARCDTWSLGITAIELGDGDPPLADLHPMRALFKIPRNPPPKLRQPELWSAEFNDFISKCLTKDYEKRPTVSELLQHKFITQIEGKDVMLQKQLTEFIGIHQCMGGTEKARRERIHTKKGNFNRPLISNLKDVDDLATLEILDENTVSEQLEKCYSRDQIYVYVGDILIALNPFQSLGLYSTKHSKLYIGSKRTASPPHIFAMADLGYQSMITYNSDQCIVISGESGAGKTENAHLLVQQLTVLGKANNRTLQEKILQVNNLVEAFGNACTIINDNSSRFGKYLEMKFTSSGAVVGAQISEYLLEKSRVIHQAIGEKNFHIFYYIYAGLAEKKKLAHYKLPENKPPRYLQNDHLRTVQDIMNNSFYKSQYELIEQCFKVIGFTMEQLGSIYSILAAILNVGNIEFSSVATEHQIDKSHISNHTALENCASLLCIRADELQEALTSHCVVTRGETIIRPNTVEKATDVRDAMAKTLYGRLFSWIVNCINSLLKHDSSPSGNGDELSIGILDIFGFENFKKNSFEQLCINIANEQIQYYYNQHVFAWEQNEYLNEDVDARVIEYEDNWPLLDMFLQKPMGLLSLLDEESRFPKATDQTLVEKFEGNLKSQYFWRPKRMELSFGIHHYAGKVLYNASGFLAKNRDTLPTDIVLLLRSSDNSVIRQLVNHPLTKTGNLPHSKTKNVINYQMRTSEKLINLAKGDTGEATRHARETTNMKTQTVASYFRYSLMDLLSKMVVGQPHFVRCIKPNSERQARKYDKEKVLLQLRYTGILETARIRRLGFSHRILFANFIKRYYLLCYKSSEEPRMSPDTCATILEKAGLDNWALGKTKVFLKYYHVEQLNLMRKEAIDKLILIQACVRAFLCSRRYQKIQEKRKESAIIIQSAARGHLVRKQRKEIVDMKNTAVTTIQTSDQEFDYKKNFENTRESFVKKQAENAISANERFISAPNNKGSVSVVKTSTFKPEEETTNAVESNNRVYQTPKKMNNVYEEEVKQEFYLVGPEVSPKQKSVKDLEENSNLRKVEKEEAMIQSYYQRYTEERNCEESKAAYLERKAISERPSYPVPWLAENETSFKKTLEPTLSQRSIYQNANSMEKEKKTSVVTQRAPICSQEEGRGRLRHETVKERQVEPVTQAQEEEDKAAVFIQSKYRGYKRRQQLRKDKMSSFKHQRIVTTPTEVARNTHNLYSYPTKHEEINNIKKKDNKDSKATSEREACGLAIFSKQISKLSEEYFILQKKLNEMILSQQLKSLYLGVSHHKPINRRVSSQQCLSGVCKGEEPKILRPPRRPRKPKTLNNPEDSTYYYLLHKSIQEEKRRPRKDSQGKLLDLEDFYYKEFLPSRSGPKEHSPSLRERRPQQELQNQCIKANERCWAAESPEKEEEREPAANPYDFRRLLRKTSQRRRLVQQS
Task for the reader: assign each of the following compounds its reported inhibition.

Consider the following illustrative entries.
FC(F)(F)c1ccc(Cl)cc1CN1CCNc2ncc(-c3ccnc(N4CCNCC4)c3)cc21 : < 50%
CN1CCN(c2ccc(-c3cnc4c(c3)N(Cc3cc(Cl)ccc3Cl)CCN4)cn2)CC1 : < 50%
CC(=O)N1CCN(c2cc(-c3cnc4c(c3)N(Cc3cc(Cl)ccc3C(F)(F)F)CCN4)ccn2)CC1 : < 50%
CN1CCN(c2ccc(-c3cnc4c(c3)N(Cc3c(F)ccc(F)c3Cl)CCN4)cn2)CC1 : < 50%
CN1CCN(c2ccc(-c3cnc4c(c3)N(Cc3cc(Cl)ccc3C(F)(F)F)CCN4)cn2)CC1 : < 50%

Look up inhibition of "CN1CCN(c2ccc(-c3cnc4c(c3)N(Cc3cc(F)ccc3F)CCN4)cn2)CC1" and report it.
< 50%

###

Task for the reader: assign each of the following compounds its reported inhibition.
biological target: Mitogen-activated protein kinase 11 (Homo sapiens) (UniProt Q15759); assay: Inhibition of p38-beta at 1 uM
Sequence (Q15759 whole entry): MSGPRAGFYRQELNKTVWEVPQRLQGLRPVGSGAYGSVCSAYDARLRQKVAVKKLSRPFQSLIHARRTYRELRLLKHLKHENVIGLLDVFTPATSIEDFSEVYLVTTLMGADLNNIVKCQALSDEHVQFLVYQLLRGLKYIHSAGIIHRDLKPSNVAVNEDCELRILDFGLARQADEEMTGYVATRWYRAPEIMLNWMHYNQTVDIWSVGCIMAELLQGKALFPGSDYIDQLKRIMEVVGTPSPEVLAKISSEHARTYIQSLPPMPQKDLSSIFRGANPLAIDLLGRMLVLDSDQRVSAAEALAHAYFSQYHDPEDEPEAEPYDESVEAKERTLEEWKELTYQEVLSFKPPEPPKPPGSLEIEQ

Could you report inhibition for every entry in the following list?
1. COC1CCN(C(=O)c2ccc(-c3cnc4c(c3)N(Cc3cc(Cl)ccc3C(F)(F)F)CCN4)cc2)CC1
2. CN1CCN(c2ccc(-c3cnc4c(c3)N(Cc3cc(Cl)ccc3Cl)CCN4)cn2)CC1
3. CC(=O)N1CCN(c2cc(-c3cnc4c(c3)N(Cc3cc(Cl)ccc3C(F)(F)F)CCN4)ccn2)CC1
4. CN1CCN(c2ccc(-c3cnc4c(c3)N(Cc3cc(Cl)ccc3C(F)(F)F)CCN4)cn2)CC1
5. O=C(O)c1ccc(-c2cnc3c(c2)N(Cc2cc(Cl)ccc2C(F)(F)F)CCN3)cc1
6. FC(F)(F)c1ccc(Cl)cc1CN1CCNc2ncc(-c3ccnc(N4CCNCC4)c3)cc21

["< 50%", "< 50%", "< 50%", "< 50%", "< 50%", "< 50%"]

Could you report inhibition for every entry in the following list?
1. CN1CCN(c2ccc(-c3cnc4c(c3)N(Cc3cc(F)ccc3F)CCN4)cn2)CC1
2. O=C(c1ccc(-c2cnc3c(c2)N(Cc2cc(Cl)ccc2C(F)(F)F)CCN3)cc1)N1CCC(N2CCCC2)CC1
3. CN1CCN(c2ccc(-c3cnc4c(c3)N(Cc3c(F)ccc(F)c3Cl)CCN4)cn2)CC1
4. O=C(c1ccc(-c2cnc3c(c2)N(Cc2cc(Cl)ccc2C(F)(F)F)CCN3)cc1)N1CCCCC1

1. < 50%
2. < 50%
3. < 50%
4. < 50%

###

molecular target: ALK tyrosine kinase receptor (Homo sapiens); experiment: Inhibition of ALK phosphorylation in human Karpas-299 cells by immunoblotting and ELISA; format: cell-based
Sequence (Q9UM73 whole entry): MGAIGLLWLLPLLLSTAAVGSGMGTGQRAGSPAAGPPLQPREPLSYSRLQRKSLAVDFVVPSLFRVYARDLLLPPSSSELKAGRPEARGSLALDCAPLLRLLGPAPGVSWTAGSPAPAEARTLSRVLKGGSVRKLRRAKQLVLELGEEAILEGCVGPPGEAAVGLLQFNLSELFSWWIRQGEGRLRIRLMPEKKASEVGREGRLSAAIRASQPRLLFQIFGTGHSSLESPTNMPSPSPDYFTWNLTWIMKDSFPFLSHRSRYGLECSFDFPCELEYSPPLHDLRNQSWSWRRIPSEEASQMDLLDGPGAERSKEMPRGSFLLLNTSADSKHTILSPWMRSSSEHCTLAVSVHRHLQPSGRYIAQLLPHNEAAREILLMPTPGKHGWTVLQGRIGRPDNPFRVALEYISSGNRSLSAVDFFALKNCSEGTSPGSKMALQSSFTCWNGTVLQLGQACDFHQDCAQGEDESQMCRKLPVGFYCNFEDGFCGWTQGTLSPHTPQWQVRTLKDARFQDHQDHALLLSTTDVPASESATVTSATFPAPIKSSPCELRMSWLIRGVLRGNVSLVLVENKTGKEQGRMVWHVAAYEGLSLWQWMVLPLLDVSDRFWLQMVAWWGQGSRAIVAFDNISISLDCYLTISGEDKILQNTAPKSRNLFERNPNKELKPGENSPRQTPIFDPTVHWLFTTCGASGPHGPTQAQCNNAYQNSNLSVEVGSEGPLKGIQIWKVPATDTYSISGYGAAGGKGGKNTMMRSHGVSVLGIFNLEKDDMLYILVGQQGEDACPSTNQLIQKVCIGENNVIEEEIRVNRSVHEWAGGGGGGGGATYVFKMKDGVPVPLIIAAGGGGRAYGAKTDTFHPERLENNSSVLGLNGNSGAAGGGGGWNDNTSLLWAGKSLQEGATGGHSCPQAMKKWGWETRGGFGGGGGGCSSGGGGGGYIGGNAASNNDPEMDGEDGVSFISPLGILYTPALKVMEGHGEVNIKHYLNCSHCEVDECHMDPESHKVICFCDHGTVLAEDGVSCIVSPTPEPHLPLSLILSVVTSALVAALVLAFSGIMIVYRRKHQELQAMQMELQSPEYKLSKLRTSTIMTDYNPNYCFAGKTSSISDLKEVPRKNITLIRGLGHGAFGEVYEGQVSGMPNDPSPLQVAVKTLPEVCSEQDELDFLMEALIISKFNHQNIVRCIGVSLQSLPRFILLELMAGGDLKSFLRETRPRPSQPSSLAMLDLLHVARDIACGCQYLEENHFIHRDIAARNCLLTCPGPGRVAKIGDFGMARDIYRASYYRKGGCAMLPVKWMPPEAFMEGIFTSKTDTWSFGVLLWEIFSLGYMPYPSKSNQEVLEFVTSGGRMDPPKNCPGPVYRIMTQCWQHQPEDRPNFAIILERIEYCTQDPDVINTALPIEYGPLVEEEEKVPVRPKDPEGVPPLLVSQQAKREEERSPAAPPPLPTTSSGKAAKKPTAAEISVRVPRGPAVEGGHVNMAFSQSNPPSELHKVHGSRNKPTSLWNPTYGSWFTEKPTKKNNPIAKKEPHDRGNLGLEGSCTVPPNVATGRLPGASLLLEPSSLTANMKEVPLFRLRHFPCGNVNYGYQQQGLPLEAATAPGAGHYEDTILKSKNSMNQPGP
measure: pIC50
Answers are plain numbers, as −log10 of the molar value.

CC(=O)N1CCN(c2cc(-c3cnc4c(c3)N(Cc3cc(Cl)ccc3C(F)(F)F)CCN4)ccn2)CC1 : 6.60
O=C(c1ccc(-c2cnc3c(c2)N(Cc2cc(Cl)ccc2C(F)(F)F)CCN3)cc1)N1CCC(N2CCCC2)CC1 : 6.60

Could you report pIC50 for every entry in the following list?
1. CN1CCN(c2ccc(-c3cnc4c(c3)N(Cc3cc(F)ccc3F)CCN4)cn2)CC1
2. COC1CCN(C(=O)c2ccc(-c3cnc4c(c3)N(Cc3cc(Cl)ccc3C(F)(F)F)CCN4)cc2)CC1
3. FC(F)(F)c1ccc(Cl)cc1CN1CCNc2ncc(-c3ccnc(N4CCNCC4)c3)cc21

6.70
6.35
6.82

###

target: Vascular endothelial growth factor receptor 2 (Homo sapiens); test: Inhibition of VEGFR2 at 1 uM
measure: inhibition

Consider the following illustrative entries.
CN1CCN(c2ccc(-c3cnc4c(c3)N(Cc3c(F)ccc(F)c3Cl)CCN4)cn2)CC1 : < 50%
FC(F)(F)c1ccc(Cl)cc1CN1CCNc2ncc(-c3ccnc(N4CCNCC4)c3)cc21 : < 50%
O=C(c1ccc(-c2cnc3c(c2)N(Cc2cc(Cl)ccc2C(F)(F)F)CCN3)cc1)N1CCC(N2CCCC2)CC1 : < 50%
O=C(O)c1ccc(-c2cnc3c(c2)N(Cc2cc(Cl)ccc2C(F)(F)F)CCN3)cc1 : < 50%
CN1CCN(c2ccc(-c3cnc4c(c3)N(Cc3cc(Cl)ccc3Cl)CCN4)cn2)CC1 : < 50%

Look up inhibition of "CN1CCN(c2ccc(-c3cnc4c(c3)N(Cc3cc(F)ccc3F)CCN4)cn2)CC1" and report it.
< 50%

###

Molecular target: Serine/threonine-protein kinase ULK2 (Homo sapiens)
Sequence (whole entry): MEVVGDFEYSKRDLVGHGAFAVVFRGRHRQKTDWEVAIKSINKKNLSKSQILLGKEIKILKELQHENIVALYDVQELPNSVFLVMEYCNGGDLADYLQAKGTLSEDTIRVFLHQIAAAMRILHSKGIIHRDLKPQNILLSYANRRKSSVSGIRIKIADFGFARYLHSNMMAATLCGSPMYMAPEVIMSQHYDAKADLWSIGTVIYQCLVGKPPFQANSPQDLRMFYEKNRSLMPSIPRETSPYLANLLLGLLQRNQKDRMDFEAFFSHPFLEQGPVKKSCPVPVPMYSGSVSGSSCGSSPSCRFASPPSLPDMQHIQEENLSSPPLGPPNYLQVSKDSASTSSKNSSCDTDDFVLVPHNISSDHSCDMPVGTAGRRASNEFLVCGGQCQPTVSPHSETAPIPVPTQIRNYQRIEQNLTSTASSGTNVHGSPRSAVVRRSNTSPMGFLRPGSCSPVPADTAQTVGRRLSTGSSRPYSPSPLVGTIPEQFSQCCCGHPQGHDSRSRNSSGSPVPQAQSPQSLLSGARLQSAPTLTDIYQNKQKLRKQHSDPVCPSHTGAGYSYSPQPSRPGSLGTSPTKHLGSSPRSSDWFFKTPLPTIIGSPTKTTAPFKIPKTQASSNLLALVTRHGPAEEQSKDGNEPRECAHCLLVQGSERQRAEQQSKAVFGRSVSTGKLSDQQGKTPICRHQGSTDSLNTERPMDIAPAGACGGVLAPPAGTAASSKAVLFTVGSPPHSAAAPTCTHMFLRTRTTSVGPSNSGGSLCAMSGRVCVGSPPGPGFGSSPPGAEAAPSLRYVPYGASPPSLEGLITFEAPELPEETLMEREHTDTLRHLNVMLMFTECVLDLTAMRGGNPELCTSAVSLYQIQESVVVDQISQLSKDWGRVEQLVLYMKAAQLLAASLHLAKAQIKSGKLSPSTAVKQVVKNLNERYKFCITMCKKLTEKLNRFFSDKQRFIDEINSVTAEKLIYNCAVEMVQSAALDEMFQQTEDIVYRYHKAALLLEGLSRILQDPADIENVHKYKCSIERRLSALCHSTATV
Assay: Inhibition of ULK2 at 1 uM
measure: inhibition

CN1CCN(c2ccc(-c3cnc4c(c3)N(Cc3cc(Cl)ccc3Cl)CCN4)cn2)CC1 : < 50%
CN1CCN(c2ccc(-c3cnc4c(c3)N(Cc3c(F)ccc(F)c3Cl)CCN4)cn2)CC1 : < 50%

Could you report inhibition for every entry in the following list?
1. CC(=O)N1CCN(c2cc(-c3cnc4c(c3)N(Cc3cc(Cl)ccc3C(F)(F)F)CCN4)ccn2)CC1
2. CN1CCN(c2ccc(-c3cnc4c(c3)N(Cc3cc(F)ccc3F)CCN4)cn2)CC1
3. FC(F)(F)c1ccc(Cl)cc1CN1CCNc2ncc(-c3ccnc(N4CCNCC4)c3)cc21
4. CN1CCN(c2ccc(-c3cnc4c(c3)N(Cc3cc(Cl)ccc3C(F)(F)F)CCN4)cn2)CC1

1: < 50%; 2: < 50%; 3: 78%; 4: < 50%
